- protocol_details: ESI positive response factor (isotope-corrected peak area per molar concentration) in SFC/ESI/HRMS (area units per M); higher = higher ionization efficiency;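 note: standards in acetonitrile/water run in triplicate on a zwitterionic HILIC column, CO2–methanol gradient containing 20 mmol/L ammonium acetate, postcolumn makeup flow, Orbitrap full-scan detection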
- condition_details: 1.75 µM
Entries and their ESI positive response factor values follow.
Simply state the number, no unit and no words.

If you can, please state the reported ESI positive response factor value of O=C(O)C(c1ccccc1)C1CCCCN1 (stereo not drawn) [Ritalinic acid] .
1.26e+17

Would you kindly share the measured ESI positive response factor for CCCCC(=O)N(Cc1ccc(-c2ccccc2-c2nn[nH]n2)cc1)C(C(=O)O)C(C)C (stereo not drawn) [Valsartan] ?
5.94e+16

Entry COc1nc(C)nc(NC(=O)NS(=O)(=O)c2ccccc2Cl)n1 [Chlorsulfuron] has what ESI positive response factor?
5.77e+16

###

- protocol_details: ESI positive response factor (isotope-corrected peak area per molar concentration) in SFC/ESI/HRMS (area units per M); higher = higher ionization efficiency
- condition_details: 0.035 µM
Recorded ESI positive response factor for the following compounds

Recorded ESI positive response factor, per entry:
compound	reported_property	experimental_result
COC(=O)N(OC)c1ccccc1COc1ccn(-c2ccc(Cl)cc2)n1	ESI positive response factor	5.71e+17
CN1C(C)(C)CC(O)CC1(C)C	ESI positive response factor	5.26e+17
CCNc1nc(Cl)nc(NC(C)C)n1	ESI positive response factor	1.07e+18
CC1(C)CC(O)CC(C)(C)N1	ESI positive response factor	1.78e+17
Nc1cnn(-c2ccccc2)c(=O)c1Cl	ESI positive response factor	1.01e+17

Now examine the next entry.
Entry Nc1ncnc2c1ncn2C1OC(CO)C(O)C1O (configuration not stated) has what ESI positive response factor?
1.46e+17

###

- protocol_details: ESI positive response factor (isotope-corrected peak area per molar concentration) in SFC/ESI/HRMS (area units per M); higher = higher ionization efficiency
- condition_details: 0.61 µM
Property: ESI positive response factor; scope: individual compounds
Just the number, please.

Some solved cases for reference:
compound	ESI positive response factor
NCC1(CC(=O)O)CCCCC1	2.83e+16
N[C@@H](Cc1ccccc1)C(=O)O	1.27e+16
Nc1cccc2c1CN(C1CCC(=O)NC1=O)C2=O (configuration not stated)	5.58e+14
NC(=O)N=C(N)N	2.53e+15
Cn1sccc1=O	9.58e+14

Given the entry CCSC(=O)N1CCCCCC1 [Molinate] , report its measured ESI positive response factor.
1.59e+16

Please give the measured ESI positive response factor for this compound: C[NH2+]C[C@H](O)CO
6.66e+16

###

Item-by-item account of ESI positive response factor
- protocol_details: ESI positive response factor (isotope-corrected peak area per molar concentration) in SFC/ESI/HRMS (area units per M); higher = higher ionization efficiency
- condition_details: 0.175 µM
I only need the number, thanks.

Name the reported ESI positive response factor value associated with the compound CC(=O)Nc1ccc(O)cc1
3.74e+16

###

The reader will find reported ESI positive response factor values listed item by item below.
- protocol_details: ESI positive response factor (isotope-corrected peak area per molar concentration) in SFC/ESI/HRMS (area units per M); higher = higher ionization efficiency
- condition_details: 0.0875 µM
Lab note: jot down the number only; don't add units.

These recorded examples may help you get a feel for the data.
molecule	ESI positive response factor
CC1=C(C(=O)Nc2ccccc2)SCCO1	1.07e+17
CCOC(=O)NCCOc1ccc(Oc2ccccc2)cc1	5.34e+17
Cn1c(N)c(NC=O)c(=O)n(C)c1=O	8.08e+14
C1CN(CCOCCN2CCOCC2)CCO1	1.92e+17
CCC[C@@H]1O[C@@H]2C[C@H]3[C@@H]4CCC5=CC(=O)C=C[C@]5(C)[C@H]4[C@@H](O)C[C@]3(C)[C@]2(C(=O)CO)O1	1.25e+17
COc1cc(Cc2cnc(N)nc2N)cc(OC)c1OC	3.58e+17
CC(C)NCC(O)COc1ccc(CC(N)=O)cc1 (centres undefined)	1.82e+17
CCCCCC(C)N (centres undefined)	1.47e+16

In the following, a different molecule is considered.
Entry under review: CN(C)CCC=C1c2ccccc2CCc2ccccc21 . Reported ESI positive response factor?
3.69e+17
